Test system: human IgG-Fc
Test: Cellulose-immobilized 13-mer peptide variants incubated with human IgG-Fc, anti-human IgG-AP detection
Format: binding
Set-up: key: No binding of immunoglobulin for the defined peptide variant, detection negative: 0; Binding of immunoglobulin for the defined peptide variant, detection positive: +
Conditions: IgG-Fc 1 μg/ml in blocking buffer, 3 h room temperature
Bridge positions count the residues as written; N and C are the ends. Square brackets hold non-standard residues; d marks the D form. Ends that are not written are not given here. cellulose = not defined here; βAla = NCCC(=O)O
Metric: Result for incubation with human IgG-Fc (immunoglobulin binding detection)

Previously resolved entries follow.
{"Substance": "05K: cellulose-bound 13-mer variant DCAWKLGELVWCT-(βA)(βA) (disulfide 2-12 (inferred); not fully specified (N-terminus, C-terminus); printed as DCAWKLGELVWCT-(βA)(βA); also: cellulose-bound)", "Result": 0}
{"Substance": "06K: cellulose-bound 13-mer variant DCAWHKGELVWCT-(βA)(βA) (DCAWHKGELVWCT-{βAla-βAla-cellulose}; disulfide 2-12 (inferred); not fully specified (N-terminus); printed as DCAWHKGELVWCT-(βA)(βA); reading uncertain)", "Result": "+"}
{"Substance": "09Y: cellulose-bound 13-mer variant DCAWHLGEYVWCT-(βA)(βA) (DCAWHLGEYVWCT-{βAla-βAla-cellulose}; disulfide 2-12 (inferred); reading uncertain; also: printed as DCAWHLGEYVWCT-(βA)(βA))", "Result": 0}
{"Substance": "09V: cellulose-bound 13-mer variant DCAWHLGEVVWCT-(βA)(βA) (DCAWHLGEVVWCT-{βAla-βAla-cellulose}; disulfide 2-12 (inferred); reading uncertain; also: printed as DCAWHLGEVVWCT-(βA)(βA))", "Result": 0}
{"Substance": "11T: cellulose-bound 13-mer variant DCAWHLGELVTCT-(βA)(βA)", "Result": 0}
{"Substance": "04E: cellulose-bound 13-mer variant DCAEHLGELVWCT-(βA)(βA) (DCAEHLGELVWCT[βAla][βAla]; disulfide 2-12 (inferred); also: cellulose-bound)", "Result": "+"}
{"Substance": "04S: cellulose-bound 13-mer variant DCASHLGELVWCT-(βA)(βA) (disulfide 2-12 (inferred); not fully specified (N-terminus, C-terminus); printed as DCASHLGELVWCT-(βA)(βA); also: cellulose-bound)", "Result": "+"}
{"Substance": "03K: cellulose-bound 13-mer variant DCKWHLGELVWCT-(βA)(βA) (DCKWHLGELVWCT-{βAla-βAla-cellulose}; disulfide 2-12 (inferred); reading uncertain; also: printed as DCKWHLGELVWCT-(βA)(βA))", "Result": "+"}

Recorded Result for incubation with human IgG-Fc (immunoglobulin binding detection) of 02Y: cellulose-bound 13-mer variant DYAWHLGELVWCT-(βA)(βA) (DYAWHLGELVWCT[βAla][βAla]; not fully specified; printed as DYAWHLGELVWCT-(βA)(βA); also: cellulose-bound) , please.
0

Same read-out for 08P: cellulose-bound 13-mer variant DCAWHLGPLVWCT-(βA)(βA) (DCAWHLGPLVWCT-{βAla-βAla-cellulose}; disulfide 2-12 (inferred); not fully specified (N-terminus); printed as DCAWHLGPLVWCT-(βA)(βA); reading uncertain) ?
0

Same read-out for 12I: cellulose-bound 13-mer variant DCAWHLGELVWIT-(βA)(βA) (DCAWHLGELVWIT-{βAla-βAla-cellulose}; not fully specified; printed as DCAWHLGELVWIT-(βA)(βA); reading uncertain) ?
0

Just for reference, patent US7205382B2 is where these values come from.
